Reference for the values: patent US20220380459A1

Biological target: T1, human CD33 extracellular domain (human, UniProt P20138 18-259)
T1 construct: soluble monomeric ECD; also called human CD33 ECD; hCD33
Assay: SPR, Fab captured, 37C
The entries below come with measured koff values attached.
Numbers only here, please. The scale is s⁻¹.

Consider the following illustrative entries.
binder | scale.unit | koff
ADI-11839 Fab (Fab, V domains shown, Fab fragment; also called Ab28) VH: QVQLVQSGAEVKKPGASVKVSCKASGYTFSNYYMHWVRQAPGQGLEWMGWINPFSGGTRYAQKFQGRVTMTRDTSTSTVYMELSSLRSEDTAVYYCARDVGSSAYYYMDVWGKGTTVTVSS VL: DIQMTQSPSSVSASVGDRVTITCEASKGISSWLAWYQQKPGKAPKLLIYAASDLQSGVPSRFSGSGSGTDFTLTISSLQPEDFATYYCQQAFLFPPTFGGGTKVEIK | s⁻¹ | 0.0162
ADI-11825 Fab (Fab, V domains shown, Fab fragment; also called Ab25) VH: EVQLVESGGGLVQPGGSLRLSCAASGFTFGGYWMSWVRQAPGKGLEWVANINQDGSEEYYVDSVKGRFTISRDNAKNSLYLQMNSLRAEDTAVYYCAREANYYGNVGDDYWGQGTLVTVSS VL: DIQMTQSPSSLSASVGDRVTITCRASQSIYNYLNWYQQKPGKAPKLLIYAASNLHSGVPSRFSGSGSGTDFTLTISSLQPEDFATYYCQQAFHVPITFGGGTKVEIK | s⁻¹ | 0.0038

Now turn to the next binder.
Entry ADI-11812 Fab (Fab, V domains shown, Fab fragment; also called Ab24) VH: QVQLVQSGAEVKKPGASVKVSCKASGYTFEIYYMHWVRQAPGQGLEWMGIINPSSGSTVYAQKFQGRVTMTRDTSTSTVYMELSSLRSEDTAVYYCARGAGYDDEDMDVWGKGTTVTVSS VL: DIQMTQSPSSVSASVGDRVTITCRASQGIDSWLAWYQQKPGKAPKLLIYAASSLQSGVPSRFSGSGSGTDFTLTISSLQPEDFATYYCQQAHSYPLTFGGGTKVEIK ; koff = 0.000486
